- System: OVCAR-3 ovarian
- procedure-details: NCI tumour cell line growth inhibition, 48 h; in the data active = GI50 below about 0.43 µM; inactive = the rest
Please reply with one of these outcomes: Yes = active, No = inactive

Entry COC(=O)C1CCCN1C(=O)[C@@H]1CCCN1C(=O)[C@H](Cc1c[nH]c2ccccc12)NC(=S)Nc1cc(C(F)(F)F)cc(C(F)(F)F)c1 (stereo partly drawn) : call = ? No

Entry COc1cc2c(cc1OCCCCCOc1ccc(-n3c(C)nc4ccccc4c3=O)cc1)N=C[C@@H]1CCCN1C2=O : call = ? Yes

Entry Cc1cc(NCc2cc(Nc3ccnc4cc(Cl)ccc34)ccc2F)nc(N2CCN(C)CC2)n1 : call = ? No
